Test system: MALME-3M melanoma
method: NCI tumour cell line growth inhibition, 48 h
Examples of compounds with documented TGI follow.
Write the number in µM without appending the unit.

[[record]]
compound = "CC[C@@]1(OC(=O)CCC(=O)O)C(=O)OCc2c1cc1n(c2=O)Cc2cc3ccccc3nc2-1"
readout_label = "TGI"
test_result = 6.78


Attention now turns to another entry.
Measured TGI of CC(C)(C)C([O-])=C1C(=O)c2ccccc2C1=O.CC(C)(C)C([O-])=C1C(=O)c2ccccc2C1=O.CC[O-].CC[O-].[Ti+4] : 38.5

====

Examples of compounds with documented TGI follow.
Tested on: DU-145 prostate
method: NCI tumour cell line growth inhibition, 48 h

Reference set, count: 5
[[record]]
compound = "CCCCNC(=S)Nc1nc(C(=O)NNS(=O)(=O)c2ccccc2)cs1"
assayed_system = "DU-145 prostate"
readout_label = "TGI"
test_result = "> 100 µM"

[[record]]
compound = "Cc1ccc2c(c1)sc(-c1ccc(N(C)C)cc1)[n+]2C"
assayed_system = "DU-145 prostate"
readout_label = "TGI"
test_result = "32 µM"

[[record]]
compound = "CC[C@H]1C=CCC[C@@]2(C[C@@H]3CC[C@@H]4[C@H](C(=O)OCCCCCCCCCCCCCCCC(=O)N(CCCN)C[C@@H](O)CCN)[C@]5(CCC[C@@H](C)O5)NC(=[N+]34)N2)O1"
assayed_system = "DU-145 prostate"
readout_label = "TGI"
test_result = "> 10 µM"

[[record]]
compound = "CC1=CC[C@@H]2C(C)(C)[C@@H](O)CC[C@@]2(C)[C@@H]1COc1ccc2ccc(=O)oc2c1"
assayed_system = "DU-145 prostate"
readout_label = "TGI"
test_result = "17.8 µM"

[[record]]
compound = "Cn1c2ccccc2n2c3nc4ccccc4nc3c(C#N)c12"
assayed_system = "DU-145 prostate"
readout_label = "TGI"
test_result = "> 100 µM"


Measured TGI of CC(O)C(NC(=O)C(CS)NC(=O)C(CO)NC(=O)C(CCCCN)NC(=O)C(Cc1c[nH]c2ccccc12)NC(=O)C(Cc1ccc(O)cc1)NC(=O)C(CS)NC(=O)C(N)Cc1ccccc1)C(N)=O (stereo not drawn) : > 25 µM

Measured TGI of Nc1cc(CO)cc(Nc2c3ccccc3nc3occc23)c1 : > 100 µM

Measured TGI of N#C/C(=C(\O)C(=O)O)c1ccc(-c2cccc3ccccc23)cc1 : > 100 µM
